Values from paper PMC7102954

- System Tested: T1, Nab3 RRM K363R (Saccharomyces cerevisiae, UniProt P38996 329-419, K363R)
- T1 sequence: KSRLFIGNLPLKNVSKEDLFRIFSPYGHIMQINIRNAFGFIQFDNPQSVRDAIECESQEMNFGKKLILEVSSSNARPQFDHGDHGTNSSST
- Assay Explanation: pull-down (streptavidin, anti-His blot densitometry); 25 uM RNA; protein 0-60 uM; apparent Kd; 10 mM Tris-HCl pH 7.8, 50 mM NaCl, 1 mM EDTA, 5% glycerol, 2.5 mM DTT; 30 min at 15 C, then beads 2 h at 4 C; washes with 0.1% Tween-20
- Assay Setup: protein: recombinant; tags: N-terminal His6 (pET28a)
Readout Label: Kd (µM)
Just the number please, in µM, no unit attached.

Query :: Record request: Kd value, item UUUCUUUUUUCUUAUUCUUAUU (ssRNA) [snR47 RNA probe]
Result :: 41.9
